So I've got a bunch of molecules here, and I need their pIC50 values.
target: Sodium-dependent dopamine transporter (Homo sapiens); assay: Inhibition of human DAT expressed in CHO cells assessed as [3H]-dopamine reuptake incubated for 60 mins measured after 30 mins by topcount method
Sequence (Q01959 whole entry): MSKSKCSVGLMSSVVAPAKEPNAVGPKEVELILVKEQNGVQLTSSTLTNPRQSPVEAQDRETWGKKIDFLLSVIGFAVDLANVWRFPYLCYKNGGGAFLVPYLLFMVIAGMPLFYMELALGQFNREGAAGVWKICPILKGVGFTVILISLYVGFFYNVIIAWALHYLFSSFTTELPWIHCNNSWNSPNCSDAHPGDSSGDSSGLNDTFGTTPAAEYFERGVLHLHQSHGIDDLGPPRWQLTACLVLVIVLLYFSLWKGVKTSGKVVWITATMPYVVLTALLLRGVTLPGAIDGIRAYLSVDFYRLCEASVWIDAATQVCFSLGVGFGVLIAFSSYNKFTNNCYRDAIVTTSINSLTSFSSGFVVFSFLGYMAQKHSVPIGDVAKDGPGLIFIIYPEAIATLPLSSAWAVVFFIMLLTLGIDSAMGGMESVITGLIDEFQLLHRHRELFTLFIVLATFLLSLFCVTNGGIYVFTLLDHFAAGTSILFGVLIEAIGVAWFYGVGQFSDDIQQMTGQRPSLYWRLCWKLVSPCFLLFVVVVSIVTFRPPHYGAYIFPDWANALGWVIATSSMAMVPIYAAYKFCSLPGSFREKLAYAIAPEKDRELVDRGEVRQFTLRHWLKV
pIC50: −log10 of the molar value.

Q: Find the measured pIC50 of O=C1NCCCN1C[C@@H]1CNCCO[C@H]1c1ccc(Cl)c(F)c1 and report it.
Ans: 7.18

Q: Find the measured pIC50 of O=c1cccnn1C[C@@H]1CNCCO[C@H]1c1ccc(Cl)c(F)c1 and report it.
Ans: 6.62

Q: Find the measured pIC50 of Cc1nnc(-c2cccn(C[C@@H]3CNCCO[C@H]3c3ccc(Cl)c(F)c3)c2=O)[nH]1.Cl and report it.
Ans: < 6.00

Q: Find the measured pIC50 of O=C1CCCN1C[C@@H]1CNCCO[C@H]1c1ccc(Cl)c(F)c1 and report it.
Ans: 6.40

Q: Find the measured pIC50 of CC(=O)NC[C@@H]1CNCCO[C@H]1c1ccc(Cl)c(F)c1 and report it.
Ans: < 6.00

Q: Find the measured pIC50 of O=C1CCCCN1C[C@@H]1CNCCO[C@H]1c1ccc(Cl)c(F)c1 and report it.
Ans: 6.89

Q: Find the measured pIC50 of Cl.O=c1[nH]c(-c2cccn(C[C@@H]3CNCCO[C@H]3c3ccc(Cl)c(F)c3)c2=O)no1 and report it.
Ans: < 6.00

Q: Find the measured pIC50 of Cl.O=c1ccccn1C[C@@H]1CNCCO[C@H]1c1ccc(Cl)c(F)c1 and report it.
Ans: < 6.00

Q: Find the measured pIC50 of Cl.O=c1c(-c2nnn[nH]2)cccn1C[C@@H]1CNCCO[C@H]1c1ccc(Cl)c(F)c1 and report it.
Ans: < 6.00

Q: Find the measured pIC50 of Cl.O=c1[nH]c(-c2cccc(=O)n2C[C@@H]2CNCCO[C@H]2c2ccc(Cl)c(F)c2)no1 and report it.
Ans: < 6.00

Q: Find the measured pIC50 of Cl.O=C(O)c1cccn(C[C@@H]2CNCCO[C@H]2c2ccc(Cl)c(F)c2)c1=O and report it.
Ans: < 6.00

Q: Find the measured pIC50 of COC(=O)c1cccn(C[C@@H]2CNCCO[C@H]2c2ccc(Cl)c(F)c2)c1=O.Cl and report it.
Ans: < 6.00

Q: Find the measured pIC50 of Cl.O=c1[nH]c(-c2ccc(=O)n(C[C@@H]3CNCCO[C@H]3c3ccc(Cl)c(F)c3)c2)no1 and report it.
Ans: < 6.00

Q: Find the measured pIC50 of Cl.O=c1[nH]c(-c2ccn(C[C@@H]3CNCCO[C@H]3c3ccc(Cl)c(F)c3)c(=O)c2)no1 and report it.
Ans: < 6.00

====

assay: Oral bioavailability in Crl:CD(SD)(IGS) rat at 1 mg/kg administered via cassette dosing by LC/MS/MS analysis; type: ADME, organism-based; details: in vivo
REPORTED METRIC: bioavailability (%)
I only need the number, in %, no unit after it.

Q: Find the measured bioavailability of Cl.O=c1[nH]c(-c2cccn(C[C@@H]3CNCCO[C@H]3c3ccc(Cl)c(F)c3)c2=O)no1 and report it.
Ans: 12

Q: Find the measured bioavailability of Cl.O=c1ccccn1C[C@@H]1CNCCO[C@H]1c1ccc(Cl)c(F)c1 and report it.
Ans: 20

Q: Find the measured bioavailability of Cl.O=c1c(-c2nnn[nH]2)cccn1C[C@@H]1CNCCO[C@H]1c1ccc(Cl)c(F)c1 and report it.
Ans: 8

Q: Find the measured bioavailability of Cl.O=C(O)c1cccn(C[C@@H]2CNCCO[C@H]2c2ccc(Cl)c(F)c2)c1=O and report it.
Ans: 41
